Recorded measurements of pIC50, one per entry
- Experimental system: murine CCR2 (Mus musculus, UniProt P51683)
- Construct: host or cells: U2OS β-arrestin cell line
- Sequence (P51683 whole entry): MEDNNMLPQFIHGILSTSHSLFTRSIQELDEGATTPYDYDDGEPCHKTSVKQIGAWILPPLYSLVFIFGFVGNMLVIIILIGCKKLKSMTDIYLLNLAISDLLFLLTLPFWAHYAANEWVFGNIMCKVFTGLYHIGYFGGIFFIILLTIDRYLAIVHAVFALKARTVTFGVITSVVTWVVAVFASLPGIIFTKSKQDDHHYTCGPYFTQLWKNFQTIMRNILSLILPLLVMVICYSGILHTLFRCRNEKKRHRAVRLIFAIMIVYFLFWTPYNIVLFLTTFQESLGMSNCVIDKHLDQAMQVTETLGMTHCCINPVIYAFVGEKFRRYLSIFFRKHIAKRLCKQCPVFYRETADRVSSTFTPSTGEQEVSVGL
- Assay method text: Functional β-arrestin recruiting test with human MCP-1 (B-2a)
- Format: cell-based
- Experimental setup: U2OS β-arrestin cell line transfected with murine CCR2; agonist human MCP-1 at EC50 (about 3 nM); in some cases means of several determinations
Remember, pIC50 is on a log scale: it is -log10 of the molar concentration.

Compound: O=c1[nH]c(Nc2cn[nH]c2)nc(C(F)(F)F)c1Oc1ccc(Cl)c(C(F)(F)F)c1 [Example 104]
Property label: pIC50
Numeric value: 6.80

Compound: Cn1cnc(Nc2nc(C(F)(F)F)c(Oc3ccc(Cl)c(Cl)c3)c(=O)[nH]2)n1 [Example 106]
Property label: pIC50
Numeric value: 5.85

Compound: O=c1[nH]c(-c2cccc(O)n2)nc(C(F)(F)F)c1Oc1ccc(Cl)c(C(F)(F)F)c1 [Example 30]
Property label: pIC50
Numeric value: 6.28

For the next question, use this compound.
Param readout = pIC50; param system = murine CCR2 (Mus musculus, UniProt P51683); param query = O=c1[nH]c(-c2cn[nH]c2)nc(C(F)(F)F)c1Cc1ccc(Cl)c(Cl)c1 [Example 63] ; response: value
7.00

---

- Experimental system: murine CCR2 (Mus musculus)
- Construct: host or cells: U2OS β-arrestin cell line
- Assay method text: Functional β-arrestin recruiting test with murine MCP-1 (B-2b)
- Format: cell-based
- Experimental setup: U2OS β-arrestin cell line transfected with murine CCR2; agonist murine MCP-1; in some cases means of several determinations
Friendly reminder: IC50 below 300 nM is Y, at or above is N.

Examples from the recorded data:
Molecular string: O=c1[nH]c(-c2cnccn2)nc(C(F)(F)F)c1Oc1ccc(Cl)c(Cl)c1
Classification: N
--
Molecular string: O=c1[nH]c(-c2cc(C3CC3)on2)nc(C(F)(F)F)c1Oc1ccc(Cl)c(Cl)c1
Classification: N

Record COc1nccnc1-c1nc(C(F)(F)F)c(Oc2ccc(Cl)c(Cl)c2)c(=O)[nH]1 : is its IC50 strictly below 300 nM?
Y

Next entry: O=c1[nH]c(-c2ncccc2Cl)nc(C(F)(F)F)c1Oc1ccc(Cl)cc1
N

---

- Experimental system: human CCR2 (Homo sapiens)
- Sequence (P41597 1-360 isoform P41597-2): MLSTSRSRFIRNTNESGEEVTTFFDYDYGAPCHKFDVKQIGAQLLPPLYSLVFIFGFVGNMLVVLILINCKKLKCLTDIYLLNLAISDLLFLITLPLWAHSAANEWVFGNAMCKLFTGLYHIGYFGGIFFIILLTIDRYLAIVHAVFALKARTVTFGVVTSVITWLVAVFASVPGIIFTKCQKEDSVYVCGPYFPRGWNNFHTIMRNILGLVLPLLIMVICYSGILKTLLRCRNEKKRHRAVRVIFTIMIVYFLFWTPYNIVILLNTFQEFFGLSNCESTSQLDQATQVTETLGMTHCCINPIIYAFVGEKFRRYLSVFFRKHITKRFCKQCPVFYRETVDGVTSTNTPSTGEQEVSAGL
- Assay method text: Functional Ca2+ release test (B-1)
- Experimental setup: Chem-1 cell line transfected with human CCR2; 50% inhibition of the MCP-1 effect, MCP-1 at EC50 (about 5 nM); in some cases means of several determinations
Property label: IC50

Molecule: O=c1[nH]c(-c2ncccc2Cl)nc(C(F)(F)F)c1Oc1ccc(Cl)c(F)c1
IC50: 4.3 nM
--
Molecule: Cn1cnc(Nc2nc(C(F)(F)F)c(Oc3ccc(Cl)c(Cl)c3)c(=O)[nH]2)n1
IC50: 180 nM
--
Molecule: COc1cccc(Nc2nc(C(F)(F)F)c(Oc3ccc(Cl)c(Cl)c3)c(=O)[nH]2)n1
IC50: 430 nM

Moving on to the next molecule.
Value wanted: IC50 (human CCR2 (Homo sapiens)) of entry C[S+]([O-])c1cccnc1-c1nc(C(F)(F)F)c(Oc2ccc(Cl)c(Cl)c2)c(=O)[nH]1 (stereo not shown)
103 nM
